Recorded values, source ChEMBL document CHEMBL4385593.

experiment: Cmax in Sprague-Dawley rat at 10 mg/kg, po by LC/MS/MS analysis; format: ADME, organism-based; design: dose 10 mg/kg, route oral; details: in vivo
parameter: Cmax (µg/mL)

CC[C@H](Nc1ncnc2[nH]cnc12)c1nc2cccc(F)c2c(=O)n1-c1ccccc1: 2.32
C[C@H](Nc1ncnc2[nH]cnc12)C1=Nc2cccc(Cl)c2S(=O)(=O)N1c1ccccc1: 0.643

----------
assay: Half life in Sprague-Dawley rat at 10 mg/kg, po by LC/MS/MS analysis; format: ADME, organism-based; details: in vivo
Reported half-life values for a set of compounds
parameter: half-life (h)

C[C@H](Nc1ncnc2[nH]cnc12)C1=Nc2cccc(Cl)c2S(=O)(=O)N1c1ccccc1: 1.2
CC[C@H](Nc1ncnc2[nH]cnc12)c1nc2cccc(F)c2c(=O)n1-c1ccccc1: 1.03
